System: naïve rats
assay_notes: Open field activity (basic movement)
Type: in vivo, rat
assay_context: 30 mg/kg p.o.; formalin-naïve rats
Friendly reminder: Decrease in basic movement below 30% is t, at or above is f.

Examples from the recorded data:
## Input Record CC(=O)Nc1cccc(Nc2ncnc(N3CCC(Oc4ccc(Cl)c(C)c4)CC3)n2)c1C [Compound B] : is its Decrease in basic movement strictly below 30%?
## Output t

## Input Please indicate whether the reported Decrease in basic movement of CC(=O)Nc1cccc(Nc2ncnc(N3CCC(OCc4ccc(F)c(F)c4)CC3)n2)c1C [Compound D] is strictly below 30%.
## Output t

## Input Confirm or reject: Decrease in basic movement of CC(=O)Nc1cccc(Nc2ncnc(N3CCC(OCc4ccc(OC(F)(F)F)cc4)CC3)n2)c1C [Compound 52] lies strictly below 30%
## Output f

More entries:
## Input Answer whether the compound CC(=O)Nc1cccc(Nc2ncnc(N3CC(Oc4ccc(F)cc4)C3)n2)c1C [Compound C] has Decrease in basic movement strictly less than 30%
## Output t

## Input Problem: For the compound CC(=O)Nc1cccc(Nc2ncnc(N3CCc4cc(OC(F)(F)F)ccc4C3)n2)c1 [Compound F] , is Decrease in basic movement under 30%?
## Output f

## Input Is 30% strictly greater than the compound's reported Decrease in basic movement? compound: CC(=O)Nc1cc(Nc2ncnc(N3CC=C(c4ccc(C#N)cc4)CC3)n2)ccc1F [Compound E]
## Output t
